system: CCRIS mutagenicity, Ames/micronucleus/aberration tests; assay: CCRIS mutagenicity studies; details: Test System: AMES SALMONELLA TYPHIMURIUM; Strain/Indicator: TA100; Metabolic Activation: RAT LIVER S-9, AROCLOR 1254; Method: PREINCUBATION
Active and inactive are the calls of the source. The rule behind the calls is not given here.
Possible outcomes: active, inactive

structure	class
C/C(C=O)=C\c1ccccc1	inactive
C=C(C=O)CCCC	active
O=NN1CCC[C@H]1c1cccnc1	inactive
Nc1cc([N+](=O)[O-])ccc1-c1ccc([N+](=O)[O-])cc1	active
Nc1ccc(N=Nc2ccc3c(c2)C(=O)/C(=N/Nc2ccc(Nc4ccc(N/N=C5/C(=O)c6cc(N=Nc7ccc(N)cc7N)ccc6C=C5S(=O)(=O)O)cc4S(=O)(=O)O)cc2)C(S(=O)(=O)O)=C3)c(N)c1	inactive
CC(C)(C)NC(=O)[C@H]1CC[C@H]2[C@@H]3CC=C4C=C(C(=O)O)CC[C@]4(C)[C@H]3CC[C@]12C	inactive
Nc1ccc(-c2ccc(N)cc2)cc1	inactive
O=CCCCC=O	active
O=C(OOC(=O)c1ccccc1)c1ccccc1	inactive
